Target: SMYD3 (Homo sapiens (Human))
Experiment: SMYD3 biochemical assay (SPA, 3H-SAM methylation of MEKK2 protein substrate)
Conditions: read-out: SMYD3 Biochem IC50 (μM)*
IC50 listing for selected molecules.
value type: IC50 (µM)

>>> numeric_readout("C[C@@H]1CN(S(=O)(=O)CCCN)CC[C@@H]1NC(=O)c1cc(C2CC2)on1 [compound 387]")
0.07
>>> numeric_readout("C[C@H]1C[C@@H](NC(=O)c2cc(C3CC3)on2)CCN1S(=O)(=O)c1c[nH]cn1 [compound 483]")
0.533
>>> numeric_readout("C[C@@H]1CC(NC(=O)c2cc(C3CC3)on2)CCN1S(=O)(=O)CCN (stereo partly shown) [compound 77]")
0.633
>>> numeric_readout("CC1CC(CC(=O)N2CCC(NC(=O)c3cc(C4CC4)on3)C[C@@H]2C)CCN1 (stereo partly shown) [compound 141]")
3.53
>>> numeric_readout("CN[C@H]1CC[C@H](C(=O)N2CCC(NC(=O)c3cc(C4CC4)on3)C[C@@H]2C)CC1 (stereo partly shown) [compound 90]")
5.33
>>> numeric_readout("N[C@H]1C[C@H](C(=O)N2CCC(NC(=O)c3cc(C4CC4)on3)CC2)C1 [compound 20]")
5.77
>>> numeric_readout("C[C@@H](N)C(=O)NC[C@@H](Cc1ccc(O)c(I)c1)C(=O)N1CCC(NC(=O)c2cc(C3CC3)on2)CC1 [compound 42]")
8.39
>>> numeric_readout("CC(C)(C)C1CC(NC(=O)c2cc(C3CC3)on2)CCN1C(=O)CCCN (stereo not shown) [compound 219]")
6.32
>>> numeric_readout("C[C@@H]1C[C@@H](NC(=O)c2cc(C3CC3)on2)CCN1S(=O)(=O)Cc1ccccc1 [compound 185]")
4.31
>>> numeric_readout("CC1CN(C(=O)[C@H]2CC[C@H](N)CC2)C(C)CC1NC(=O)c1cc(C2CC2)on1 (stereo partly shown) [compound 263]")
0.0322
>>> numeric_readout("N[C@H]1CC[C@H](C(=O)N2CCC(NC(=O)c3cc(C4CC4)on3)C[C@@H]2c2ccccc2)CC1 (stereo partly shown) [compound 163]")
7.17
>>> numeric_readout("NCCCS(=O)(=O)N1CC[C@H](NC(=O)c2cc(C3CC3)on2)C[C@@H]1Cc1ccccc1 [compound 424]")
0.228
>>> numeric_readout("NCC(=O)NC[C@H](Cc1ccc(O)c(I)c1)C(=O)N1CCC(NC(=O)c2cc(C3CC3)on2)CC1 [compound 37]")
0.623
>>> numeric_readout("N[C@@H](Cc1ccccc1)C(=O)N1CCC(NC(=O)c2cc(C3CC3)on2)CC1 [compound 1]")
2.88
>>> numeric_readout("O=C(NC1CC2CCCC(C1)N2S(=O)(=O)CCCN1CCOCC1)c1cc(C2CC2)on1 (stereo not shown) [compound 410]")
6.32
>>> numeric_readout("CC1(NC(=O)c2cc(C3CC3)on2)CCN(C(=O)[C@H]2CC[C@H](N)CC2)CC1 [compound 150]")
0.91
>>> numeric_readout("C[C@H]1CC(NC(=O)c2cc(C3CC3)on2)CCN1S(=O)(=O)CCN (stereo partly shown) [compound 78]")
0.155
>>> numeric_readout("N[C@H]1CC[C@@H](C(=O)N2CCC(NC(=O)c3cc(C4CC4)on3)CC2)C1 [compound 182]")
4.79
>>> numeric_readout("C[C@@H]1CN(C(=O)[C@H]2CC[C@H](N)CC2)CC[C@@H]1NC(=O)c1cc(C2CC2)on1 [compound 148]")
0.282
>>> numeric_readout("NCCCC(=O)N1CC[C@@H](NC(=O)c2cc(C3CC3)on2)[C@H](c2ccccc2)C1 [compound 220]")
2.52
>>> numeric_readout("C[C@@H]1CC(NC(=O)c2cc(C3CC3)on2)CCN1C(=O)CC1(CN)CCC1 (stereo partly shown) [compound 205]")
1.99
>>> numeric_readout("C[C@H]1CC(NC(=O)c2cc(C3CC3)on2)CCN1C(=O)[C@@H]1CC[C@@H](N)C1 (stereo partly shown) [compound 85]")
2.37
>>> numeric_readout("O=C(NC1CC2CCC(C1)N2S(=O)(=O)CC1CCNCC1)c1cc(C2CC2)on1 (stereo not shown) [compound 416]")
0.164
>>> numeric_readout("CN[C@@H](Cc1cn(C)c2ccccc12)C(=O)N1CCC(NC(=O)c2cc(C3CC3)on2)CC1 [compound 8]")
1.2
>>> numeric_readout("C[C@@H]1CC(NC(=O)c2cc(C3CC3)on2)CCN1C[C@H]1CC[C@H](N)CC1 (stereo partly shown) [compound 113]")
4.59
>>> numeric_readout("C[C@@H]1CN(C(=O)[C@H]2CC[C@H](N)CC2)CC[C@H]1NC(=O)c1cc(C2CC2)on1 [compound 146]")
2.28
>>> numeric_readout("C[C@@H]1C[C@H](NC(=O)c2cc(C3CC3)on2)CCN1C(=O)c1cccc(C(C)(C)N)c1 [compound 365]")
0.454

###

Molecular target: SMYD3 (Homo sapiens (Human), UniProt Q9H7B4)
Sequence (Q9H7B4 whole entry): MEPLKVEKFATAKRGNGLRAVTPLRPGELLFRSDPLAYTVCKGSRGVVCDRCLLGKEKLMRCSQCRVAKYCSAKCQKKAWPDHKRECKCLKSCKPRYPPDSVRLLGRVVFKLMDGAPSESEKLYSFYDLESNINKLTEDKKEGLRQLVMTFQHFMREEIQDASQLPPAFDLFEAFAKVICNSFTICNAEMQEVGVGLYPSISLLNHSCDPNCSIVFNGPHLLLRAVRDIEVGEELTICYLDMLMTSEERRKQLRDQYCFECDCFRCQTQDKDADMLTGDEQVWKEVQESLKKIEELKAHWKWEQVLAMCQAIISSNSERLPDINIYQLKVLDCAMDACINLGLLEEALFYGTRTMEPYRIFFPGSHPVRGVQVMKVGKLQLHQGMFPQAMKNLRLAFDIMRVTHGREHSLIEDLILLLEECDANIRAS
Experiment: SMYD3 cell assay (Trimethyl-MEKK2 In-Cell Western in 293T/17 cells)
Assay type: cell-based
Conditions: Table 1A; IC50 values are an average of n = 1 to n = 50; read-out: SMYD3 Cell IC50
pIC50: −log10 of the molar value.
The label depends only on pIC50: MET if it is at least 6, NOT MET if it is smaller.

>>> label_class("O=C(N[C@H]1C[C@H]2CC[C@@H](C1)N2S(=O)(=O)N1CCNCC1)c1cc(C2CC2)on1 [compound 527]")
"MET"
>>> label_class("CC(C)[C@H]1C[C@H](NC(=O)c2cc(C3CC3)on2)CCN1S(=O)(=O)CCCN [compound 503]")
"NOT MET"
>>> label_class("CC(C)[C@@H]1C[C@H](NC(=O)c2cc(C3CC3)on2)CCN1S(=O)(=O)CCCN [compound 502]")
"NOT MET"
>>> label_class("O=C(N[C@H]1CCN(S(=O)(=O)CCCN2CCOCC2)[C@@H](Cc2ccccc2)C1)c1cc(C2CC2)on1 [compound 497]")
"NOT MET"
>>> label_class("CC(C)[C@H]1C[C@@H](NC(=O)c2cc(C3CC3)on2)CCN1S(=O)(=O)CCCN [compound 501]")
"NOT MET"
>>> label_class("O=C1Cc2cc(S(=O)(=O)N3[C@@H]4CC[C@H]3C[C@H](NC(=O)c3cc(C5CC5)on3)C4)ccc2N1 [compound 493]")
"NOT MET"
>>> label_class("COCCNc1ccc(S(=O)(=O)N2CC[C@@H](NC(=O)c3cc(C4CC4)on3)C[C@@H]2C)cn1 [compound 505]")
"NOT MET"
>>> label_class("C[C@H]1C[C@@H](NC(=O)c2cc(C3CC3)on2)CCN1S(=O)(=O)CCCNCc1ccccc1 [Cpd. No. 500]")
"MET"
>>> label_class("O=C1Cc2cc(S(=O)(=O)N3[C@@H]4CC[C@H]3C[C@H](NC(=O)c3cc(C5CC5)on3)C4)c(Cl)cc2N1 [compound 490]")
"NOT MET"
>>> label_class("O=C(N[C@@H]1C[C@H]2CC[C@@H](C1)N2S(=O)(=O)c1ccc2[nH]c(=O)[nH]c2c1)c1cc(C2CC2)on1 [compound 494]")
"NOT MET"
>>> label_class("O=C(N[C@@H]1C[C@H]2CC[C@@H](C1)N2S(=O)(=O)CCCN1CCOCC1)c1cc(C2CC2)on1 [compound 495]")
"NOT MET"
>>> label_class("COCCN(C)c1ccc(S(=O)(=O)N2CC[C@H](NC(=O)c3cc(C4CC4)on3)C[C@H]2C)cn1 [compound 504]")
"NOT MET"
>>> label_class("O=C(N[C@H]1CCN(S(=O)(=O)CCN2CCOCC2)[C@H](Cc2ccccc2)C1)c1cc(C2CC2)on1 [compound 499]")
"NOT MET"
>>> label_class("O=C(N[C@@H]1C[C@H]2CC[C@@H](C1)N2S(=O)(=O)c1cc2oc(=O)[nH]c2cc1Cl)c1cc(C2CC2)on1 [compound 491]")
"NOT MET"
>>> label_class("C[C@@H]1C[C@@H](NC(=O)c2cc(C3CC3)on2)CCN1S(=O)(=O)c1ccc(NCCN2CCOCC2)nc1 [compound 506]")
"NOT MET"
>>> label_class("C[C@H]1C[C@H](NC(=O)c2cc(C3CC3)on2)CCN1S(=O)(=O)c1ccc(NCCN2CCOCC2)nc1 [compound 507]")
"NOT MET"
>>> label_class("O=C(N[C@H]1CCN(S(=O)(=O)CCCN2CCOCC2)[C@H](Cc2ccccc2)C1)c1cc(C2CC2)on1 [compound 498]")
"NOT MET"
>>> label_class("O=C(Nc1ccc(S(=O)(=O)N2[C@@H]3CC[C@H]2C[C@H](NC(=O)c2cc(C4CC4)on2)C3)cc1)c1ccncc1 [compound 489]")
"NOT MET"
>>> label_class("O=C(N[C@H]1C[C@H]2CC[C@@H](C1)N2S(=O)(=O)CC1CCNCC1)c1cc(C2CC2)on1 [compound 526]")
"MET"
